PROTOCOL_SUMMARY: Displacement of [3H]epibatidine from Torpedo californica muscle-type nAChR after 90 mins by liquid scintillation counting
Type: tissue-based, Tetronarce californica
Field: Ki. Provide a value for each of the compounds that follow.
Answers are plain numbers, in nM.

Solved entries:
C[N+]12CC[C@@]34c5ccccc5N5[C@@H]6OC=C7C[N+]8(C)CC[C@]9%10c%11ccccc%11N([C@@H]%11OCC=C(C1)[C@H](C[C@@H]32)[C@@H]%11[C@H]54)[C@H]9[C@H]6[C@H]7C[C@@H]%108 (some centres undefined) :: 5200
CC[C@@H]1CN2CC[C@@]34c5ccccc5N5/C=C6/[C@H]7C[C@@H]8N(CC[C@@]89c8ccccc8N(/C=C(/[C@H]1C[C@H]23)[C@H]54)[C@@H]69)C[C@H]7CCO :: 390

Could I get Ki for every one of these entries?
1. C=CC[N+]12CC[C@@]34c5ccccc5N5[C@@H]6OC=C7C[N+]8(CC=C)CC[C@]9%10c%11ccccc%11N([C@@H]%11OCC=C(C1)[C@H](C[C@@H]32)[C@@H]%11[C@H]54)[C@H]9[C@H]6[C@H]7C[C@@H]%108 (some centres undefined)
2. C=CC[N+]12CC[C@@]34c5ccccc5N5/C=C6/[C@H]7C[C@H]8[C@@]9(CC[N+]8(CC=C)C[C@H]7CCO)c7ccccc7N(/C=C(/[C@@H](C[C@@H]31)[C@H](CC)C2)[C@H]54)[C@@H]69 (some centres undefined)

Response:
1: 1500; 2: 250

src = ChEMBL document CHEMBL3352208
